The reported measurements were obtained from the supplement of paper PMC5998384.

- Test system: HeLa Kyoto;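 also: HeLa Kyoto cells arrested at G1/S by double thymidine block, proteins quantified by TMT10plex mass spectrometry in mild NP-40 versus SDS extracts, three biological replicates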
- Experiment: solubility in G1/S (NP-40 vs SDS abundance) (log2 ratio); higher = more soluble
- Measurement Conditions: cell cycle stage: G1/S
// label = 1 if solubility in G1/S (log2) is not less than 0.2, otherwise -1

Sequence Content	Answer Label
MAASRPLSRFWEWGKNIVCVGRNYADHVREMRSAVLSEPVLFLKPSTAYAPEGSPILMPAYTRNLHHELELGVVMGKRCRAVPEAAAMDYVGGYALCLDMTARDVQDECKKKGLPWTLAKSFTASCPVSAFVPKEKIPDPHKLKLWLKVNGELRQEGETSSMIFSIPYIISYVSKIITLEEGDIILTGTPKGVGPVKENDEIEAGIHGLVSMTFKVEKPEY [FAHD1]	-1

Does MSVTLHTDVGDIKIEVFCERTPKTCENFLALCASNYYNGCIFHRNIKGFMVQTGDPTGTGRGGNSIWGKKFEDEYSEYLKHNVRGVVSMANNGPNTNGSQFFITYGKQPHLDMKYTVFGKVIDGLETLDELEKLPVNEKTYRPLNDVHIKDITIHANPFAQ [PPIL3] have a reported solubility in G1/S (log2) of at least 0.2?
1

Does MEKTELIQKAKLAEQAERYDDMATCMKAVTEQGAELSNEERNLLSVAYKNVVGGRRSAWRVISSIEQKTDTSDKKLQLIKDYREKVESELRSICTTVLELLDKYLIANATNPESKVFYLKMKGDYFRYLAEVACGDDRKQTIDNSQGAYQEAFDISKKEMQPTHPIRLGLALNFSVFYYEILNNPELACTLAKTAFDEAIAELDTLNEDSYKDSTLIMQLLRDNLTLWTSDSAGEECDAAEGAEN [YWHAQ] have a reported solubility in G1/S (log2) of at least 0.2?
1

Does MLRREARLRREYLYRKAREEAQRSAQERKERLRRALEENRLIPTELRREALALQGSLEFDDAGGEGVTSHVDDEYRWAGVEDPKVMITTSRDPSSRLKMFAKELKLVFPGAQRMNRGRHEVGALVRACKANGVTDLLVVHEHRGTPVGLIVSHLPFGPTAYFTLCNVVMRHDIPDLGTMSEAKPHLITHGFSSRLGKRVSDILRYLFPVPKDDSHRVITFANQDDYISFRHHVYKKTDHRNVELTEVGPRFELKLYMIRLGTLEQEATADVEWRWHPYTNTARKRVFLSTE [IMP4] have a reported solubility in G1/S (log2) of at least 0.2?
-1

Does MEKTQETVQRILLEPYKYLLQLPGKQVRTKLSQAFNHWLKVPEDKLQIIIEVTEMLHNASLLIDDIEDNSKLRRGFPVAHSIYGIPSVINSANYVYFLGLEKVLTLDHPDAVKLFTRQLLELHQGQGLDIYWRDNYTCPTEEEYKAMVLQKTGGLFGLAVGLMQLFSDYKEDLKPLLNTLGLFFQIRDDYANLHSKEYSENKSFCEDLTEGKFSFPTIHAIWSRPESTQVQNILRQRTENIDIKKYCVHYLEDVGSFEYTRNTLKELEAKAYKQIDARGGNPELVALVKHLSKMFKEENE [GGPS1] have a reported solubility in G1/S (log2) of at least 0.2?
-1

Does MPYQYPALTPEQKKELSDIAHRIVAPGKGILAADESTGSIAKRLQSIGTENTEENRRFYRQLLLTADDRVNPCIGGVILFHETLYQKADDGRPFPQVIKSKGGVVGIKVDKGVVPLAGTNGETTTQGLDGLSERCAQYKKDGADFAKWRCVLKIGEHTPSALAIMENANVLARYASICQQNGIVPIVEPEILPDGDHDLKRCQYVTEKVLAAVYKALSDHHIYLEGTLLKPNMVTPGHACTQKFSHEEIAMATVTALRRTVPPAVTGITFLSGGQSEEEASINLNAINKCPLLKPWALTFSYGRALQASALKAWGGKKENLKAAQEEYVKRALANSLACQGKYTPSGQAGAAASESLFVSNHAY [ALDOA] have a reported solubility in G1/S (log2) of at least 0.2?
1
